# testDescription: Caco-2 Permeability Assay
# Assay type: in vitro ADME
# conditionSummary: human, Caco-2, test compound 3 μM
quantityKind: Papp at 2 h, 3 µM (×10⁻⁶ cm/s)

Sample answers from the record:
1) CCn1cc(-c2cnc(-n3ncc4cc(C#N)cnc43)cc2NC(C)C)nn1 ... 33.9
2) CCCn1cc(-c2cnc(-n3ncc4cc(C#N)c(N)nc43)cc2NC(C)C)nn1 ... 16.7
3) CC(=O)NC1CCC(c2cc(-c3cnc(-n4ncc5cc(C#N)cnc54)cc3NC(C)C)on2)CC1 (stereo not shown) ... 14.8

1: CC(C)Nc1cc(-n2ncc3cc(C#N)cnc32)ncc1-c1cn(C2CCN(S(C)(=O)=O)CC2)nn1
2: CC(=O)N1CCC[C@@H](c2cc(-c3cnc(-n4ncc5cc(C#N)cnc54)cc3NC(C)C)on2)C1
3: CC(C)Nc1cc(-n2ncc3cc(C#N)cnc32)ncc1-c1cn([C@H]2CC[C@H](NCC(F)F)CC2)nn1
// ranking: key=Papp at 2 h, 3 µM, reverse=True I'd appreciate it if you listed the labels in the requested order. 2, 3, 1
(2: 25 ×10⁻⁶ cm/s, 3: 9.1 ×10⁻⁶ cm/s, 1: 4.7 ×10⁻⁶ cm/s)

* * *

# testDescription: Caco-2 Permeability Assay
# Assay type: in vitro ADME
# conditionSummary: human, Caco-2, test compound 3 μM
quantityKind: Papp at 2 h, 3 µM (×10⁻⁶ cm/s)

1) CC(C)Nc1cc(-n2ncc3cc(C#N)cnc32)ncc1-c1cn(CC2CC2)nn1 [Example 16] ... 14
2) CC(C)Nc1cc(-n2ccc3cncnc32)ncc1-c1cn([C@@H]2CCNC[C@@H]2O)nn1 [Example 7] ... 3.9
3) CC(C)Nc1cc(-n2ncc3cc(C#N)cnc32)ncc1-c1cn([C@@H]2CCN(C(=O)C(C)(C)C)C[C@H]2O)nn1 (single isomer, unassigned) [Example 206] ... 2
4) CC(C)Nc1cc(-n2ncc3cc(C#N)cnc32)ncc1-c1cn(C2CN(C(C)C)C2)nn1 [Example 150] ... 9.1
5) CC(C)Nc1cc(-n2ncc3cc(C#N)cnc32)ncc1-c1cn(CCO)nn1 [Example 11] ... 2.8

P: CC(=O)N1CCC(c2cc(-c3cnc(-n4ncc5cc(C#N)cnc54)cc3NC(C)C)on2)CC1 [Example 402]
Q: CCCc1cn(-c2cnc(-n3ncc4cncnc43)cc2Nc2cnn(CC(F)F)c2)nn1 [Example 270]
Hey, which is lower on measured Papp at 2 h, 3 µM, P or Q ? Return value: the label identifying the chosen record. P
(P: 19.2 ×10⁻⁶ cm/s, Q: 37.2 ×10⁻⁶ cm/s)

* * *

# testDescription: Caco-2 Permeability Assay
# Assay type: in vitro ADME
# conditionSummary: human, Caco-2, test compound 3 μM
quantityKind: Papp at 2 h, 3 µM (×10⁻⁶ cm/s)

Sample answers from the record:
1) CC(C)(O)CCc1cn(-c2cnc(-n3ncc4cc(C#N)cnc43)cc2N[C@@H]2CCC[C@@H]2F)nn1 ... 6.8
2) CC(C)Nc1cc(-n2ccc3cncnc32)ncc1-c1cn([C@H]2CCNC[C@H]2O)nn1 ... 1.7
3) CC(C)(F)CCc1cn(-c2cnc(-n3ncc4cc(C#N)cnc43)cc2N[C@@H]2CCOC2)nn1 ... 27.7
4) CC(=O)N1CC[C@H](c2cc(-c3cnc(-n4ncc5cc(C#N)cnc54)cc3NC(C)C)on2)C1 ... 12.5
5) CC(C)Nc1cc(-n2ncc3cc(C#N)cnc32)ncc1-n1cc(CCN2CCOCC2)nn1 ... 18.6
6) COC(=O)N1CC[C@@H](n2cc(-c3cnc(-n4ncc5cc(C#N)cnc54)cc3NC3CC3)nn2)[C@](C)(O)C1 (relative stereo) ... 2.6

P: CC(C)Nc1cc(-n2ncc3cc(C#N)cnc32)ncc1-n1cc(C2CCN(CC(F)F)CC2)nn1
Q: CC(=O)N1CC[C@H]1c1cc(-c2cnc(-n3ncc4cc(C#N)cnc43)cc2NC(C)C)on1
R: CC(C)Nc1cc(-n2cnc3cc(C#N)cnc32)ncc1-c1cn(C2CN(C)C2)nn1
Order the entries by their reported Papp at 2 h, 3 µM, beginning at the minimum. I'd appreciate it if you listed the labels in the requested order. Q, R, P
